Here, each record is paired with measured MFI at 33.3 nM data.
target-system: T1, CD28 endogenously expressed on Jurkat/IL2 reporter cells (human, UniProt P10747 19-220)
T1 construct: whole, on cells; Target on Jurkat cells; also called Jurkats (CD28)
protocol-summary: flow cytometry, Jurkat cells (CD28), Fc fusion at 33.3 nM
parameter: MFI at 33.3 nM (MFI)

CD80 E35D/D46V/M47V/V68M/L85Q IgV-Fc (Fc fusion, not shown: small tags and cut ends; a dimerising Fc or GST) VIHVTKEVKEVATLSCGHNVSVEELAQTRIYWQKDKKMVLTMMSGVVNIWPEYKNRTIFDITNNLSIMILALRPSDEGTYECVVQKYEKDAFKREHLAEVTLSVKAD: 331
CD80 E35D/M47V/V68M/L85Q/K89N IgV-Fc (Fc fusion, not shown: small tags and cut ends; a dimerising Fc or GST) VIHVTKEVKEVATLSCGHNVSVEELAQTRIYWQKDKKMVLTMMSGDVNIWPEYKNRTIFDITNNLSIMILALRPSDEGTYECVVQKYENDAFKREHLAEVTLSVKAD: 246
CD80 M47V/N48K/V68M IgV-Fc (Fc fusion, not shown: small tags and cut ends; a dimerising Fc or GST) VIHVTKEVKEVATLSCGHNVSVEELAQTRIYWQKEKKMVLTMMSGDVKIWPEYKNRTIFDITNNLSIMILALRPSDEGTYECVVLKYEKDAFKREHLAEVTLSVKAD: 641
CD80 E35D/D46V/M47V/V68M/K89N IgV-Fc (Fc fusion, not shown: small tags and cut ends; a dimerising Fc or GST) VIHVTKEVKEVATLSCGHNVSVEELAQTRIYWQKDKKMVLTMMSGVVNIWPEYKNRTIFDITNNLSIMILALRPSDEGTYECVVLKYENDAFKREHLAEVTLSVKAD: 2120

FYI, the data here is from patent US20210130436A1.
